Hello, the source for this data is the supplement of paper PMC11061612, in case you need it.

tested on: BxPC-3 (Pancreatic Carcinoma); assay: combination Emax (second highest fraction inhibited in the dose matrix, 72 h); higher = more inhibition; extreme values may be limits of the assay
observed_property: combination Emax

Below, 2 compounds whose answers are already recorded.
compound: CC1(C)CCC(CN2CCN(c3ccc(C(=O)NS(=O)(=O)c4ccc(NCC5CCOCC5)c([N+](=O)[O-])c4)c(Oc4cnc5[nH]ccc5c4)c3)CC2)=C(c2ccc(Cl)cc2)C1 [Venetoclax] + Cc1cc2ncnn2cc1Nc1ncc2c(n1)n(C1CCOCC1)c(=O)n2C [AZD7648] (first compound max 1 µM, 7x7, partner max 10 µM)
combination Emax: 0.283
//
compound: CN(CCO)CC[C@H](CSc1ccccc1)Nc1ccc(S(=O)(=O)NC(=O)c2ccc(N3CCC([C@@H](O)c4ccccc4-c4ccc(Cl)cc4)CC3)cc2)cc1S(=O)(=O)C(F)(F)F [AZD4320] + CC(=O)O[C@H]1C(=O)[C@@]2(C)[C@H]([C@H](OC(=O)c3ccccc3)[C@]3(O)C[C@H](OC(=O)[C@H](O)[C@@H](NC(=O)c4ccccc4)c4ccccc4)C(C)=C1C3(C)C)[C@]1(OC(C)=O)CO[C@@H]1C[C@@H]2O [Paclitaxel] (first compound max 1 µM, 7x7, partner max 3 µM)
combination Emax: 0.928

Would you kindly look at the next entry?
Query C[C@@H](Nc1cc(F)cc(F)c1)c1cc(C(=O)N(C)C)cc2c(=O)cc(N3CCOCC3)oc12 [AZD8186] + CC(=O)c1c(C)c2cnc(Nc3ccc(N4CCNCC4)cn3)nc2n(C2CCCC2)c1=O [Palbociclib] (first compound max 10 µM, 7x7, partner max 10 µM) yields combination Emax of 0.347

###

tested on: SAT (Head and Neck Carcinoma); assay: Bliss excess, mean over the matrix (fraction); higher = more synergy;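 also: after 72 h of two-drug dosing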
observed_property: Bliss excess
Give bare numbers.

Below, 6 compounds whose answers are already recorded.
compound: Cc1cc2ncnn2cc1Nc1ncc2c(n1)n(C1CCOCC1)c(=O)n2C [AZD7648] + C[C@@H]1COCCN1C2=NC(=NC(=C2)C3(CC3)[S@](=N)(=O)C)C4=C5C=CNC5=NC=C4 [AZD6738] (first compound max 10 µM, 7x7, partner max 10 µM)
value: 0.0561
//
compound: C=CCn1c(=O)c2cnc(Nc3ccc(N4CCN(C)CC4)cc3)nc2n1-c1cccc(C(C)(C)O)n1 [AZD1775] + C[C@@H]1COCCN1C2=NC(=NC(=C2)C3(CC3)[S@](=N)(=O)C)C4=C5C=CNC5=NC=C4 [AZD6738] (first compound max 1 µM, partner max 10 µM)
value: -0.0229
//
compound: C=CCn1c(=O)c2cnc(Nc3ccc(N4CCN(C)CC4)cc3)nc2n1-c1cccc(C(C)(C)O)n1 [AZD1775] + C1CN(CCC1(C(=O)N[C@@H](CCO)C2=CC=C(C=C2)Cl)N)C3=NC=NC4=C3C=CN4 [Capivasertib] (first compound max 3 µM, partner max 3 µM)
value: -0.0616
//
compound: C[C@@H](c1ccc2nccn2c1)n1nnc2ncc(-c3cnn(C)c3)nc21 [Savolitinib] + Cc1c2c(nn1C)CSCc1cc(n(C)n1)CSc1cc(c3ccccc3c1)OCCCc1c(C(=O)O)n(C)c3c-2c(Cl)ccc13 [AZD5991] (first compound max 1 µM, 7x7, partner max 1 µM)
value: -0.0558
//
compound: CN(C)CCCOc1ccc(-c2ccc3ncc4c(c3c2)n(C2CCOCC2)c(=O)n4C)cn1 [AZD0156] + C[C@@H]1COCCN1C2=NC(=NC(=C2)C3(CC3)[S@](=N)(=O)C)C4=C5C=CNC5=NC=C4 [AZD6738] (first compound max 1 µM, 7x7, partner max 10 µM)
value: -0.0116
//
compound: COc1cccc(OCCCN)c1-c1cc(Nc2cnc(C#N)cn2)n[nH]1 [Prexasertib] + C=CCn1c(=O)c2cnc(Nc3ccc(N4CCN(C)CC4)cc3)nc2n1-c1cccc(C(C)(C)O)n1 [AZD1775] (first compound max 1 µM, partner max 1 µM)
value: -0.0318

Dear colleague, could you please provide Bliss excess for the compounds listed below?
1. COc1nnc2ccc(N3CCC(c4ccc(OCCN5CCN(C)C(=O)[C@H]5C)cc4)CC3)nn12 [AZD5153] + Cc1c2c(nn1C)CSCc1cc(n(C)n1)CSc1cc(c3ccccc3c1)OCCCc1c(C(=O)O)n(C)c3c-2c(Cl)ccc13 [AZD5991] (first compound max 1 µM, 7x7, partner max 1 µM)
2. Cc1nc(Nc2ncc(C(=O)Nc3c(C)cccc3Cl)s2)cc(N2CCN(CCO)CC2)n1 [Dasatinib] + CC(=O)Nc1cccc(-n2c(=O)n(C3CC3)c(=O)c3c(Nc4ccc(I)cc4F)n(C)c(=O)c(C)c32)c1 [Trametinib] (first compound max 2 µM, 7x7, partner max 1 µM)
3. CC1(C)CCC(CN2CCN(c3ccc(C(=O)NS(=O)(=O)c4ccc(NCC5CCOCC5)c([N+](=O)[O-])c4)c(Oc4cnc5[nH]ccc5c4)c3)CC2)=C(c2ccc(Cl)cc2)C1 [Venetoclax] + CN(C)CCCOc1ccc(-c2ccc3ncc4c(c3c2)n(C2CCOCC2)c(=O)n4C)cn1 [AZD0156] (first compound max 1 µM, 7x7, partner max 1 µM)
4. COc1cc2ncnc(Nc3ccc(F)c(Cl)c3)c2cc1OCCCN1CCOCC1 [Gefitinib] + CC(C)n1c(=O)n(C)c2cnc3cc(F)c(-c4ccc(OCCCN5CCCCC5)nc4)cc3c21 [AZD1390] (first compound max 10 µM, 7x7, partner max 0.3 µM)
5. Cc1c2c(nn1C)CSCc1cc(n(C)n1)CSc1cc(c3ccccc3c1)OCCCc1c(C(=O)O)n(C)c3c-2c(Cl)ccc13 [AZD5991] + C=CCn1c(=O)c2cnc(Nc3ccc(N4CCN(C)CC4)cc3)nc2n1-c1cccc(C(C)(C)O)n1 [AZD1775] (first compound max 1 µM, partner max 1 µM)
6. Cc1c2c(nn1C)CSCc1cc(n(C)n1)CSc1cc(c3ccccc3c1)OCCCc1c(C(=O)O)n(C)c3c-2c(Cl)ccc13 [AZD5991] + Cc1cc2ncnn2cc1Nc1ncc2c(n1)n(C1CCOCC1)c(=O)n2C [AZD7648] (first compound max 1 µM, 7x7, partner max 10 µM)
7. CC1(C)CCC(CN2CCN(c3ccc(C(=O)NS(=O)(=O)c4ccc(NCC5CCOCC5)c([N+](=O)[O-])c4)c(Oc4cnc5[nH]ccc5c4)c3)CC2)=C(c2ccc(Cl)cc2)C1 [Venetoclax] + C=CCn1c(=O)c2cnc(Nc3ccc(N4CCN(C)CC4)cc3)nc2n1-c1cccc(C(C)(C)O)n1 [AZD1775] (first compound max 1 µM, partner max 1 µM)

Response given:
0.0109
-0.0712
-0.015
-0.0522
0.0173
-0.0599
-0.0537

Dear colleague, could you please provide Bliss excess for the compounds listed below?
1. CS(=O)(=O)CCNCc1ccc(-c2ccc3ncnc(Nc4ccc(OCc5cccc(F)c5)c(Cl)c4)c3c2)o1 [Lapatinib] + C[C@@H](Oc1cc(-c2cnn(C3CCNCC3)c2)cnc1N)c1c(Cl)ccc(F)c1Cl [Crizotinib] (first compound max 10 µM, 7x7, partner max 10 µM)
2. Cc1c2c(nn1C)CSCc1cc(n(C)n1)CSc1cc(c3ccccc3c1)OCCCc1c(C(=O)O)n(C)c3c-2c(Cl)ccc13 [AZD5991] + Cn1cnc2c(F)c(Nc3ccc(Br)cc3Cl)c(C(=O)NOCCO)cc21 [Selumetinib] (first compound max 1 µM, 7x7, partner max 3 µM)

Response given:
1: -0.0358; 2: 0.0193
